Attribution: ChEMBL document CHEMBL5500350

# target.entity: Transient receptor potential cation channel subfamily V member 6 (Homo sapiens, UniProt Q9H1D0)
# Sequence (Q9H1D0 whole entry): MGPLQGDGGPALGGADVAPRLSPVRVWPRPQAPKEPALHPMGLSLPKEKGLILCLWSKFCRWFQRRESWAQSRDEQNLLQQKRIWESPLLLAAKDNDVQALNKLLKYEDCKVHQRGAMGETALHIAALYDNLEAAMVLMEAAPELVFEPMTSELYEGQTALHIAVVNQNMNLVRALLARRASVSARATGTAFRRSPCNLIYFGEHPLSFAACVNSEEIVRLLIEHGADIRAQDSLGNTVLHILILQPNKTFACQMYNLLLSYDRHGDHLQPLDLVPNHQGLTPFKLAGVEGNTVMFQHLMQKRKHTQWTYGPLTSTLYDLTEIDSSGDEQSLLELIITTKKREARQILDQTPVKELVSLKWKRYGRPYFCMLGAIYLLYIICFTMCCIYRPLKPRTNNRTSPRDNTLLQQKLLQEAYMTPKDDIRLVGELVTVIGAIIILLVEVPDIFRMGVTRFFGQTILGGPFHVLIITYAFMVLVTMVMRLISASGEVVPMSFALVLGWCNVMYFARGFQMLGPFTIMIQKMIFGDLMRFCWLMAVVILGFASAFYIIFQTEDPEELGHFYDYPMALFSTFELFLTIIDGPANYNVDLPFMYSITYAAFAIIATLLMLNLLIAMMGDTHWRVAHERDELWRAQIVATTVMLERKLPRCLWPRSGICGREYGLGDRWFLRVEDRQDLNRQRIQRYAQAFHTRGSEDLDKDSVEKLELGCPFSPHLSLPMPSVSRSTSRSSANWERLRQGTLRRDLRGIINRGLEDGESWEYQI
# protocol.summary: Inhibition of TRPV6 (unknown origin) expressed in Sf9 cells
pIC50: −log10 of the molar value.
metric.name: pIC50

[[record]]
molecule_smiles = "CCCc1cc(O)c2c(c1)OC(C)(C)[C@@H]1C=CC(C)=C[C@@H]21"
measured_value = 5.03

